# Test system: Pichia kudriavzevii
# assay_notes: Antifungal activity against Candida krusei PMC 0613 after 48 hrs by M27-A3 CLSI method
# Format: functional
Flag rule - MIC less than 0.7 µg/mL flags rule met; the remaining entries get rule not met.

O=C(OC(Cn1ccnc1)c1ccc(F)cc1)c1ccc(-c2ccccc2)cc1 (single isomer, unassigned; (-)) : rule met
O=C(OC(Cn1ccnc1)c1ccccc1)c1ccc(-c2ccccc2)cc1 (racemic) : rule met
O=C(OC(Cn1ccnc1)c1ccc(F)cc1)c1ccc(-c2ccccc2)cc1 (single isomer, unassigned; (+)) : rule not met
O=C(OC(Cn1ccnc1)c1ccccc1)c1ccc(-c2ccccc2)cc1 (single isomer, unassigned; (+)) : rule not met
O=C(OC(Cn1ccnc1)c1ccccc1)c1ccc(-c2ccccc2)cc1 (single isomer, unassigned; (-)) : rule met

Turning now to a further molecule:
Hello, is MIC of the following molecule strictly smaller than 0.7 µg/mL? O=C(OC(Cn1ccnc1)c1ccc(F)cc1)c1ccc(-c2ccccc2)cc1 (racemic)
rule not met

Data provenance is ChEMBL document CHEMBL1944618.
